Data provenance: patent US20230134571A1

Overview of reported IC80 (µg/ml) with constrains across a group of binders:
# Test system: HIV Env, isolate CNE17 (HIV)
# Assay text: cell-based or functional assay
Write it as a number; the unit µg/mL goes unstated.

Here is how some binders turned out for IC80 (µg/ml) with constrains.
[[record]]
binder = "ePGDM5 (antibody, V domains shown) VH: QAQLVQSGPEVRKPGTSVKVSCKNPGNTLTTYDLHWVRQVPGQGLQWMGWISHEGDKKVIVERFKAKVTIDWDRSTNTAYLQLSGLTSEDTAVYYCAKGSKHRLRDYALYDEDGALNWAVDVDYLANLEFWGQGTAVTVSS VL: DFVLTQSPLSLSVTPGESASISCKSDHSLQHGDRNNYLAWYVQKPGRSPQLLIDLASERASGVPDRFSGSGSRKDFTLKIDRVEAEDVGTYYCMQGRESPWTFGQGTKVDIK"
measurement_type = "IC80 (µg/ml) with constrains"
measured_result = 0.028

[[record]]
binder = "ePGDM9 (antibody, V domains shown) VH: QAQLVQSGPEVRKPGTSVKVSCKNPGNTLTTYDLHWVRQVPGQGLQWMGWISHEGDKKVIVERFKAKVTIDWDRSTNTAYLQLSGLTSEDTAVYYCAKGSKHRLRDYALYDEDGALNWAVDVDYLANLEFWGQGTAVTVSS VL: DIVLTQSPLSLSVTPGESASISCKSSQSLIHGDRNNYLAWYVQKPGRSPQLLIDLASERASGVPDRFSGSGSRKDFTLKISRVETEDVGTYYCMQGRESPWTFGQGTKVDIK"
measurement_type = "IC80 (µg/ml) with constrains"
measured_result = 0.01


Q: Give the value of IC80 (µg/ml) with constrains reported for the following: PGDM1400 (antibody, V domains shown) VH: QVHLTQSGPEVRKPGTSVKVSCKAPGNTLKTYDLHWVRSVPGQGLQWMGWISHEGDKKVIVERFKAKVTIDWDRSTNTAYLQLSGLTSGDTAVYYCAKGSKHRLRDYALYDDDGALNWAVDVDYLSNLEFWGQGTAVTVSS VL: DFVLTQSPHSLSVTPGESASISCKSSHSLIHGDRNNYLAWYVQKPGRSPQLLIYLASSRASGVPDRFSGSGSDKDFTLKISRVETEDVGTYYCMQGRESPWTFGQGTKVDIK
Ans: 0.018
